Target: ToxN (ToxNEc) (Escherichia coli strain 680, UniProt PDB:7D8O_1 1-187)
Experiment: ITC; one-site fit; ITC: 50 mM KH2PO4 pH 7, 100 mM KCl, 15°C; 2-5 uM RNA in cell, 35-50 uM ToxN in syringe
Conditions: protein: recombinant; tags: N-terminal His6 (pCold II); pseudoknot with 3' single-stranded overhang
READOUT LABEL: pKd
Remember, pKd is on a log scale: it is -log10 of the molar concentration.

What value of measured pKd is listed for GGAGGUGAUUUGCUACCUUUAAGUGCAGCUAGAA (structured_RNA) [Δ5'-ToxI] ?
7.33
